Tested on: Salmonella typhimurium
Assay: Example 1: effect of pH buffering of acetic and propionic acid on antimicrobial activity in water
Assay type: cell-based
Conditions: Product Conc. 0.1 (% acid solution in water); 4 hr

{"compound": "CCC(=O)O [Propionic pH 7, Propionic acid]", "study.target": "Salmonella typhimurium", "Salmonella at time Interval 4 hr cfu/g, cfu/g": 1600}
{"compound": "CC(=O)O [Acetic pH 5, Acetic acid]", "study.target": "Salmonella typhimurium", "Salmonella at time Interval 4 hr cfu/g, cfu/g": 1300}
{"compound": "CC(=O)O [Acetic pH 3, Acetic acid]", "study.target": "Salmonella typhimurium", "Salmonella at time Interval 4 hr cfu/g, cfu/g": 873}
{"compound": "CC(=O)O [Acetic pH 7, Acetic acid]", "study.target": "Salmonella typhimurium", "Salmonella at time Interval 4 hr cfu/g, cfu/g": 1567}
{"compound": "CC(=O)O [Acetic pH 1, Acetic acid]", "study.target": "Salmonella typhimurium", "Salmonella at time Interval 4 hr cfu/g, cfu/g": 520}
{"compound": "CCC(=O)O [Propionic pH 5, Propionic acid]", "study.target": "Salmonella typhimurium", "Salmonella at time Interval 4 hr cfu/g, cfu/g": 817}

###

Test system: Salmonella typhimurium
Experiment: Example 2: effect of carbon chain length of individual organic acids on antimicrobial activity in water
Assay type: cell-based
Conditions: Product Conc. 0.075 (% acid solution in water); 4 hr

{"compound": "CCCCC(=O)O [Valeric acid]", "measurement.unit": "cfu/g", "Salmonella at time Interval 4 hr cfu/g": 990}
{"compound": "CCCCCCC(=O)O [Oenanthic acid]", "measurement.unit": "cfu/g", "Salmonella at time Interval 4 hr cfu/g": 0}
{"compound": "CCC(=O)O [Propionic acid]", "measurement.unit": "cfu/g", "Salmonella at time Interval 4 hr cfu/g": 877}
{"compound": "CCCCCCCCCCCC(=O)O [Lauric acid/KOH, Lauric acid]", "measurement.unit": "cfu/g", "Salmonella at time Interval 4 hr cfu/g": 0}
{"compound": "CCCCCCCC(=O)O [Caprylic acid/KOH, Caprylic acid]", "measurement.unit": "cfu/g", "Salmonella at time Interval 4 hr cfu/g": 1100}
{"compound": "CCCCCCCCC(=O)O [Pelargonic acid/KOH, Pelargonic acid]", "measurement.unit": "cfu/g", "Salmonella at time Interval 4 hr cfu/g": 0}
{"compound": "CCCCCC(=O)O [Caproic acid]", "measurement.unit": "cfu/g", "Salmonella at time Interval 4 hr cfu/g": 523}

###

Tested on: Salmonella typhimurium
Test: Example 2: effect of carbon chain length of individual organic acids on antimicrobial activity in water
Format: cell-based
Conditions: Product Conc. 0.025 (% acid solution in water); 24 hr
Entries annotated with measured Salmonella at time Interval 24 hr cfu/g

{"test.smiles": "CCC(=O)O", "study.target": "Salmonella typhimurium", "measurement.unit": "cfu/g", "Salmonella at time Interval 24 hr cfu/g": 170}
{"test.smiles": "CCCCCC(=O)O", "study.target": "Salmonella typhimurium", "measurement.unit": "cfu/g", "Salmonella at time Interval 24 hr cfu/g": 30}
{"test.smiles": "CCCCCCCC(=O)O", "study.target": "Salmonella typhimurium", "measurement.unit": "cfu/g", "Salmonella at time Interval 24 hr cfu/g": 1400}
{"test.smiles": "CCCCCCCCC(=O)O", "study.target": "Salmonella typhimurium", "measurement.unit": "cfu/g", "Salmonella at time Interval 24 hr cfu/g": 0}
{"test.smiles": "CCCCCCC(=O)O", "study.target": "Salmonella typhimurium", "measurement.unit": "cfu/g", "Salmonella at time Interval 24 hr cfu/g": 10}
{"test.smiles": "CCCCCCCCCCCC(=O)O", "study.target": "Salmonella typhimurium", "measurement.unit": "cfu/g", "Salmonella at time Interval 24 hr cfu/g": 20}
{"test.smiles": "CCCCC(=O)O", "study.target": "Salmonella typhimurium", "measurement.unit": "cfu/g", "Salmonella at time Interval 24 hr cfu/g": 533}

###

Test system: Salmonella typhimurium
Experiment: Example 2: effect of carbon chain length of individual organic acids on antimicrobial activity in water
Assay type: cell-based
Conditions: Salmonella enterica, TYPHIMURIUM; Product Conc. 0.025 (% acid solution in water); 24 hr; read-out: Salmonella at time Interval 24 hr % reduction
Description: 100 ul of a nutrient broth culture of Salmonella typhimurium was added to each dilution tube. After addition, tubes were vortexed and allowed to stand. At 4 and 24 hours after addition of the inoculum, 100 ul of the solution was plated on agar (triplicate plates). Plates were incubated at 37° C. for 24 hours prior to enumeration. The minimum effective dose of each acid was be determined by linear regression: […]
Entries annotated with measured killing at […]

{"test.smiles": "CCCCCCCC(=O)O", "killing at […], %": 18}
{"test.smiles": "CCC(=O)O", "killing at […], %": 90}
{"test.smiles": "CCCCCCCCC(=O)O", "killing at […], %": 100}
{"test.smiles": "CCCCCCCCCCCC(=O)O", "killing at […], %": 99}
{"test.smiles": "CCCCC(=O)O", "killing at […], %": 69}

###

Test system: Salmonella typhimurium
Test: Example 2: effect of carbon chain length of individual organic acids on antimicrobial activity in water
Assay type: cell-based
Conditions: Salmonella enterica, TYPHIMURIUM; Product Conc. 0.075 (% acid solution in water); 4 hr; read-out: Salmonella at time Interval 4 hr % reduction
endpoint.name: killing at 0.075 %

{"test.smiles": "CCCCCCCCC(=O)O", "endpoint.name": "killing at 0.075 %", "value": "100%"}
{"test.smiles": "CCC(=O)O", "endpoint.name": "killing at 0.075 %", "value": "45%"}
{"test.smiles": "CCCCC(=O)O", "endpoint.name": "killing at 0.075 %", "value": "38%"}
